Experiment summary: Initial plasma concentration in C57BL6 mouse plasma at 1 mg/kg, iv single administration measured upto 24 hrs by LC-MS/MS analysis
Format: ADME, organism-based
Property label: C0 at 24 h (ng/mL)

>  <Smiles string>
O=C(Nc1cn2cc(-c3cccc(F)c3OCCF)ccc2n1)[C@@H]1C[C@@H]1F

>  <Reading unit>
ng/mL

>  <C0 at 24 h>
536

$$$$
>  <Smiles string>
O=C(Nc1cn2cc(-c3ccccc3CCF)ccc2n1)[C@@H]1C[C@@H]1F

>  <Reading unit>
ng/mL

>  <C0 at 24 h>
597

$$$$

----------
Experiment summary: Ratio of total drug brain AUC to total plasma AUC in C57BL6 mouse brain at 0.5 mg/kg, iv single administration measured upto 24 hrs by LC-MS/MS analysis
Type: ADME, organism-based
Property label: Kp at 24 h
Just the number.

Exercise: // Kp at 24 h lookup, key: Cc1cc(F)ncc1-c1ccc2nc(NC(=O)[C@@H]3C[C@@H]3F)sc2c1
Solution: 0.49
